Test system: 786-0 renal
Assay: NCI tumour cell line growth inhibition, 48 h
Listed below: TGI values for each entry.

Please review the entries below; each comes with its answer.
{"columns": ["Compound", "TGI"],
 "data": [
  ["Cc1ccc(S(=O)(=O)Nn2c(-c3ccccc3)c(C#N)c(-c3ccc([N+](=O)[O-])cc3)c(C#N)c2=O)cc1", "> 100 µM"],
  ["CCOC(=O)c1[nH]c2c(c1C)-c1[nH]c(=O)c(S(=O)(=O)c3ccccc3)cc1SC2", "> 100 µM"],
  ["O=c1oc(-c2ccc(O)c(O)c2)cc2cc(O)cc(O)c12", "> 100 µM"],
  ["Oc1c2cccc1Cc1cccc3c1OCCOCCOCCOCCOc1c(cccc1Cc1cccc(c1O)C3)C2", "> 100 µM"]
]}

// TGI value for O=c1[nH]c(=O)n(C2CC(O)C(CO)O2)cc1C#Cc1ccc(C(F)(F)F)cc1 (centres undefined) : > 100 µM

// TGI value for Cc1cc(S(=O)(=O)Nc2n[nH]c(Nc3ccccc3)n2)c(S)cc1Cl : > 10 µM

// TGI value for CCOC(=O)C1C/C(C)=C(/C)SCCCS1 (centres undefined) : > 100 µM

// TGI value for CC(=O)[CH-]C(=O)c1ccccc1.CC(=O)[CH-]C(=O)c1ccccc1.[O]=[U+2]=[O] : > 100 µM

// TGI value for COc1ccc(/C=C\c2cc(OC)c(OC)c(OC)c2)cc1OP(=O)(O)O : > 100 µM

* * *

System: MDA-MB-435
Assay: NCI tumour cell line growth inhibition, 48 h
Result Type: TGI (µM)
// return numeric value only (unit: µM, not printed)

{"columns": ["Molecule", "Result Type", "Readout Number"],
 "data": [
  ["O=C1OC(c2ccc(O)cc2)(c2ccc(O)cc2)c2cccc3cccc1c23", "TGI", 22.4],
  ["COc1ccc(CNc2nc(NCc3ccc(OC)cc3)nc(NC3CCCCC3)n2)cc1", "TGI", 1.94]
]}

// TGI value for CO[C@H]1C=C[C@]23c4cc5c(cc4CN(CC2O)[C@@H]3C1)OCO5 (stereo partly drawn) : 41.9

// TGI value for O=C1c2cccnc2C(=O)c2c1c(C(=O)OCCCN1CCOCC1)c1ccccn21 : 2.06

* * *

Listed below: TGI values for each entry.
Test system: LXFL 529 NSCLC
Assay: NCI tumour cell line growth inhibition, 48 h

Please review the entries below; each comes with its answer.
{"columns": ["Molecule", "Result"],
 "data": [
  ["CC1CCC(O)C(C(O)CC2CC(=O)N(C)C(=O)C2)C1 (stereo not drawn)", "> 100 µM"],
  ["CC1=CC2=C(C)C3(CC3)[C@@](C)(O)C(=O)C2=C1", "0.783 µM"]
]}

Read the next record carefully.
// TGI value for c1ccc(SCCCC(Sc2ccccc2)Sc2ccccc2)cc1 : > 100 µM

* * *

Test system: MALME-3M melanoma
Experiment: NCI tumour cell line growth inhibition, 48 h
Result Type: TGI

Please review the entries below; each comes with its answer.
{"columns": ["Compound", "Result"],
 "data": [
  ["Cc1[nH]c(=O)nc(N/N=C/c2ccc(Cl)c(Cl)c2)c1C(=O)Nc1ccc(Cl)c(Cl)c1", "> 44.5 µM"],
  ["CC(C)(C)n1cc(-c2ccnc(NCCNS(=O)(=O)c3ccc(Br)cc3)c2)c(-c2cccc(O)c2)n1", "3.34 µM"],
  ["O=C(OCc1ccccc1CN1CCOCC1)c1ccc(Br)cc1", "60.4 µM"],
  ["CC1(C)N=C(N)N=C(N)N1c1ccc(OCC(=O)Nc2cccc(S(=O)(=O)F)c2)c(Cl)c1", "> 19.9 µM"],
  ["CC1=NN(C(=O)CC(=O)Nc2cccc(Cl)c2)C(=O)C1N=Nc1ccc(S(N)(=O)=O)cc1 (stereo not drawn)", "> 100 µM"],
  ["COc1cn2c(cc1=O)COc1ccc(-c3ccccc3)cc1-2", "> 84.1 µM"],
  ["c1ccc2c(c1)CC1c3[nH]c4ccccc4c3CCN21 (stereo not drawn)", "> 10 µM"],
  ["Brc1ccc2c(c1)C1(c3cc(Br)ccc3-2)c2cc(Br)ccc2-c2ccc(Br)cc21", "> 100 µM"],
  ["COC(=O)c1cc(Nc2ccc(O)c3c2C(=O)c2c([N+](=O)[O-])ccc(O)c2C3=O)cc(C(=O)OC)c1", "6.39 µM"],
  ["O=c1[nH]c(=O)n(C2CC(O)C(CO)O2)cc1C#Cc1ccc(C(F)(F)F)cc1 (stereo not drawn)", "> 100 µM"]
]}

// TGI value for CC1CCC(O)C(C(O)CC2CC(=O)N(C)C(=O)C2)C1 (stereo not drawn) : > 100 µM

// TGI value for CC(C)(CN1CCCCC1)C(=O)CC(SCCS(=O)(=O)O)c1ccc(Br)cc1 (stereo not drawn) : 3.38 µM

// TGI value for CCOC(=O)c1cc(-c2ccc(OC)c(OC)c2)c[nH]1 : > 10 µM

// TGI value for CN(C)CCCn1c2ccccc2c2cnccc21 : 83.3 µM

// TGI value for COc1ccccc1C(=O)c1c(N2CCCCC2)c(=O)c1=O : > 100 µM

// TGI value for COc1ccc(C(=O)Cc2cc(OC)ccc2OC)cc1 : > 100 µM

// TGI value for O=C1/C(=C/c2cccc(Oc3ccccc3)c2)N=C(c2ccccc2)N1c1nc2ccc(Sc3ccccc3)cc2[nH]1 : > 100 µM

// TGI value for COc1ccc2nc3ccc(OC)cc3c(SCCCN)c2c1 : 10.5 µM

// TGI value for c1ccc2c3c(ccc2c1)CSCc1ccc2ccccc2c1-3 : > 100 µM

* * *

Test system: SNB-78 CNS
Assay: NCI tumour cell line growth inhibition, 48 h
Listed below: TGI values for each entry.

{"columns": ["Compound", "TGI"],
 "data": [
  ["C/C(=N\\N(C)C)C(CN(C)C)C(c1ccccc1)c1c(O)c2ccccc2oc1=O (stereo not drawn)", "> 100 µM"],
  ["CC1=C(C#N)C(N)=C2C(C)=C(C#N)C(N)=C12", "> 100 µM"],
  ["NC1=NS(=O)(=O)N=C(N)C1=Cc1ccc([N+](=O)[O-])o1", "47.9 µM"],
  ["Cc1ccc2c(c1)c(=O)c1c(NCCN(C)C)ccc3nnn2c31", "24.2 µM"],
  ["CCOC(=O)/C=C1\\Nc2ccccc2C(c2ccccc2)=NC1OC(C)=O (stereo not drawn)", "> 100 µM"],
  ["CC(C)OP(=O)(OC(C)C)C(N(C)C)P(=O)(OC(C)C)OC(C)C.[Cl][Sn]([Cl])([Cl])[c]1ccccc1", "> 100 µM"],
  ["CC(=O)NC1C(OCc2ccccc2)OC(COC(=O)CCCCCCCCCCNC(=O)c2cccc3c(=O)c4ccccc4[nH]c23)C(O)C1OC(C)C(=O)NC(C)C(=O)NC(CCC(N)=O)C(N)=O (stereo not drawn)", "> 100 µM"]
]}

Read the next record carefully.
// TGI value for CCOP(=O)(OCC)/C(C#N)=C\c1cccc2ccccc12 : > 100 µM

* * *

Listed below: TGI values for each entry.
Test system: K-562 leukemia
Test: NCI tumour cell line growth inhibition, 48 h

Please review the entries below; each comes with its answer.
{"columns": ["Molecule", "Experimental System", "TGI"],
 "data": [
  ["CCOP(=O)(OCC)/C(C#N)=C\\c1cccc2ccccc12", "K-562 leukemia", "> 100 µM"],
  ["CC(CS(=O)(=O)Cc1ccccc1)C(N)=O (centres undefined)", "K-562 leukemia", "> 100 µM"],
  ["CC1CN=C(c2cccc(OCc3ccc(COc4cccc(C5=NCC(C)N5)c4)cc3)c2)N1 (centres undefined)", "K-562 leukemia", "> 100 µM"]
]}

// TGI value for Nc1ncnc2occ(-c3ccc(NC(=O)Nc4cc(C(F)(F)F)cc(C(F)(F)F)c4)cc3)c12 : 9.21 µM

// TGI value for CN(C)c1ccc(-c2nc(-c3cc4c(ccc5ccccc54)oc3=O)cs2)cc1 : > 100 µM

// TGI value for COc1ccccc1C(=O)c1cnc(NC2CCN(S(C)(=O)=O)CC2)nc1N : > 25 µM

// TGI value for CCOC(=O)c1cnc2[nH]c(=O)c3ccccc3n2c1=O : > 100 µM

// TGI value for CCOC(=O)/C=C1\Nc2ccccc2C(c2ccccc2)=NC1OC(C)=O (centres undefined) : > 100 µM

* * *

Tested on: NCI-H522 lung
Experiment: NCI tumour cell line growth inhibition, 48 h
Listed below: TGI values for each entry.
// return numeric value only (unit: µM, not printed)

Please review the entries below; each comes with its answer.
{"columns": ["Molecule", "TGI / µM"],
 "data": [
  ["COC(=O)c1cc(Nc2ccc(O)c3c2C(=O)c2c([N+](=O)[O-])ccc(O)c2C3=O)cc(C(=O)OC)c1", 28.3],
  ["CC[C@]12C=CCN3CC[C@]4(C(=C(C(=O)OC)C1)Nc1cc(O)ccc14)[C@@H]32", 55.2],
  ["Oc1cc2cc(-c3ccccc3)[nH]c2c2ccccc12", 37.4],
  ["COc1ccc(CNc2nc(NCc3ccc(OC)cc3)nc(NC3CCCCC3)n2)cc1", 3.39],
  ["Oc1ccc(-c2c3c(nc4c2CCc2ccc(Br)cc2-4)-c2cc(Br)ccc2CC3)cc1", 42.7],
  ["CC1(C)OC[C@@H](/C=C\\CCO[Si](c2ccccc2)(c2ccccc2)C(C)(C)C)N1C(=O)c1ccccc1", 18.8]
]}

// TGI value for Oc1cccc(-c2nc3ccccc3s2)c1 : 51
